# Test system: HIV-1 infection of TZM-bl cells
# test-method-notes: HIV-1 infectivity enhancement assay, β-galactosidase luminescence
# Assay type: cell-based
# test-parameters: HIV-1 infection of TZM-bl cells, infection rate relative to EF-C, log10; source data of Figure 2C

| substance | Log10 Infection Rel EF-C |
| --- | --- |
| KFKQFFINMWQ | -0.03603 |
| CSISIQINM | -0.7027 |
| HIHIQIC | -0.5672 |
| RGDSKIKIQIC | -0.2249 |
| NMWQKVGTPL | -1.607 |
| CSISIQI | -1.252 |
| QCKAKAQA | -1.598 |
| KFKFQF | -1.213 |
| RGDKIKIQINMWQ | -0.1175 |
| KFKFEFEF | -1.547 |
